Taken from ChEMBL document CHEMBL1201862.

Test system: LOX IMVI
Experiment: NCI tumour cell line growth inhibition, 48 h
The source made the active and inactive calls. Rule as the data show it: active = GI50 up to about 1.1 µM and inactive = higher.
measurement name: GI50

O=C(O)c1cccc(/[As]=[As]\c2cccc(C(=O)O)c2)c1 (stereo unspecified) | 18.2 µM (inactive)
O=C(CCn1[nH]c(=O)c(Cl)c(Cl)c1=O)NO | > 100 µM (inactive)
O=c1c2c3c(sc2nc2n1N=C(c1ccc(Br)cc1)CS2)CCCC3 | > 100 µM (inactive)
O=C(O)c1cc(O)c2c(c1)C([C@@H]1c3cccc(O)c3C(=O)c3c(O)cc(C(=O)O)cc31)c1cccc(O)c1C2=O (stereo partly specified) | 15.8 µM (inactive)
CC(C)C1=C(O)C(=O)C2=C(C1=O)C(O)CC1C(C)(C)CCCC21C (stereo unspecified) | 25.1 µM (inactive)
CN1C(=O)C(=CNc2ccccc2[N+](=O)[O-])C(=O)N(C)C1=O | > 100 µM (inactive)
